# Assay System: Rat brain protein farnesyltransferase (Rattus norvegicus, UniProt Q02293+Q04631)
# Construct: Rat brain protein farnesyltransferase activity is measured; from tissue; host or cells: rat brain
# Run Description: % inhibition of farnesylation, scintillation proximity assay with biotin-K Ras B fragment
# Assay type: biochemical
# Test Context: Table 6; ** footnote 0.01 μM (title: 0.01 mM)
Observable: % inhibition at 0.01 μM (**) (%)
Give bare numbers, in %.

Example compounds with recorded % inhibition at 0.01 μM (**):
Compound | % inhibition at 0.01 μM (**) (%)
CCSCC(CC1CCCCC1)NCc1cc(-c2ccccc2C)c(C(=O)N[C@@H](CCSC)C(=O)O)cc1OC (stereo partly shown) | 83
CCSCC(CC1CCCCC1)NCc1cc(-c2ccccc2C)c(C(=O)N[C@@H](CCSC)C(=O)O)cc1F (stereo partly shown) | 95
CSCC[C@H](NC(=O)c1ccc(CN(CCF)CCC2CCCCC2)cc1-c1ccccc1C)C(=O)O | 96

Read the next record carefully.
Challenge: Read the entry `COCCN(CCC1CCCCC1)Cc1ccc(C(=O)N[C@@H](CCSC)C(=O)O)c(-c2ccccc2C)c1` and write its reported % inhibition at 0.01 μM (**).
Response given: 89

###

Task for the reader: assign each of the following molecules its reported % inhibition at 1 × 10^-6 M.
# Assay System: Rat brain protein farnesyltransferase (Rattus norvegicus, UniProt Q02293+Q04631)
# Construct: Rat brain protein farnesyltransferase activity is measured; from tissue; host or cells: rat brain
# Run Description: % inhibition of farnesylation, scintillation proximity assay with biotin-K Ras B fragment
# Format: biochemical
# Test Context: Table 2; 1 × 10^-6 M
Answer with the figure and its unit, nothing else.

Chemical Structure | Recorded Result
CSCC[C@H](NC(=O)c1ccc(CN(C(C)C)C2(CC3CCCCC3)CC2)cc1-c1ccccc1C)C(=O)O | 91%

Batch: % inhibition at 1 × 10^-6 M for all items listed.
1. CSCC[C@H](NC(=O)c1ccc(CNc2ccccc2C(N)=O)cc1-c1ccccc1)C(=O)O
2. CSCC[C@H](NC(=O)c1ccc(CN[C@H](CO)Cc2ccccc2)cc1-c1ccccc1C)C(=O)O
3. CSCC[C@H](NC(=O)c1ccc(CN(C(C)C)C2(Cc3ccccc3)CC2)cc1-c1ccccc1C)C(=O)O
4. CSCC[C@H](NC(=O)c1ccc(CN(Cc2ccccc2)Cc2cccc(Oc3ccccc3)c2)cc1-c1ccccc1C)C(=O)O
5. CSCC[C@H](NC(=O)c1ccc(-c2ccc(-c3ccccc3)cc2)cc1-c1ccccc1C)C(=O)[O-].[Li+]
6. CSCC[C@H](NC(=O)c1ccc(CN(C(C)C)C2(CC3CCCCC3)CCCC2)cc1-c1ccccc1C)C(=O)O

Response given:
54%
95%
99%
94%
44%
95%

###

# Assay System: Rat brain protein farnesyltransferase (Rattus norvegicus, UniProt Q02293+Q04631)
# Construct: Rat brain protein farnesyltransferase activity is measured; from tissue; host or cells: rat brain
# Run Description: % inhibition of farnesylation, scintillation proximity assay with biotin-K Ras B fragment
# Assay type: biochemical
# Test Context: read-out: % inhibition at 1 × 10^-8 M
Structures can show the parent of a compound that is named as a salt.
Observable: inhibition at 0.01 µM (%)
Give bare numbers, in %.

Example molecules with recorded inhibition at 0.01 µM:
Molecule | inhibition at 0.01 µM, %
CCCCC(OCc1ccc(C(=O)N[C@@H](CCSC)C(=O)O)c(-c2ccccc2C)c1)c1ccc(-c2ccc(Cl)cc2)o1 (stereo partly drawn) [Example 826, lithium salt] | 92
CSCC[C@H](NC(=O)c1ccc(COCc2cc(-c3ccc(Cl)cc3)co2)cc1-c1ccccc1C)C(=O)O [Example 904, lithium salt] | 85
CSCC[C@H](NC(=O)c1ccc(COCc2cnc(-c3cccc(F)c3)s2)cc1-c1ccccc1C)C(=O)O [Example 898, lithium salt] | 82
COc1cccc(COCc2ccc(C(=O)N[C@@H](CCSC)C(=O)O)c(-c3ccccc3C)c2)c1 [Example 932, lithium salt] | 60
CSCC[C@H](NC(=O)c1ccc(COCc2cccc(Cl)c2)cc1-c1ccccc1C)C(=O)O [Example 934, lithium salt] | 71

Read the next record carefully.
Challenge: Enter inhibition at 0.01 µM (test system Rat brain protein farnesyltransferase (Rattus norvegicus, UniProt Q02293+Q04631)) for CCCCC(CCCC)OCc1ccc(C(=O)N[C@@H](CCSC)C(=O)O)c(-c2ccccc2C)c1 [Example 942, lithium salt]
Response given: 58

Hey, just so you know, these numbers are from patent US6204293A.
